Some compounds, each annotated with its measured IC50.
- SYSTEM_NAME: Pdr5p (Saccharomyces cerevisiae, UniProt P33302)
- Construct: Pdr5p-enriched plasma membranes from strain AD124567
- Sequence (P33302 whole entry): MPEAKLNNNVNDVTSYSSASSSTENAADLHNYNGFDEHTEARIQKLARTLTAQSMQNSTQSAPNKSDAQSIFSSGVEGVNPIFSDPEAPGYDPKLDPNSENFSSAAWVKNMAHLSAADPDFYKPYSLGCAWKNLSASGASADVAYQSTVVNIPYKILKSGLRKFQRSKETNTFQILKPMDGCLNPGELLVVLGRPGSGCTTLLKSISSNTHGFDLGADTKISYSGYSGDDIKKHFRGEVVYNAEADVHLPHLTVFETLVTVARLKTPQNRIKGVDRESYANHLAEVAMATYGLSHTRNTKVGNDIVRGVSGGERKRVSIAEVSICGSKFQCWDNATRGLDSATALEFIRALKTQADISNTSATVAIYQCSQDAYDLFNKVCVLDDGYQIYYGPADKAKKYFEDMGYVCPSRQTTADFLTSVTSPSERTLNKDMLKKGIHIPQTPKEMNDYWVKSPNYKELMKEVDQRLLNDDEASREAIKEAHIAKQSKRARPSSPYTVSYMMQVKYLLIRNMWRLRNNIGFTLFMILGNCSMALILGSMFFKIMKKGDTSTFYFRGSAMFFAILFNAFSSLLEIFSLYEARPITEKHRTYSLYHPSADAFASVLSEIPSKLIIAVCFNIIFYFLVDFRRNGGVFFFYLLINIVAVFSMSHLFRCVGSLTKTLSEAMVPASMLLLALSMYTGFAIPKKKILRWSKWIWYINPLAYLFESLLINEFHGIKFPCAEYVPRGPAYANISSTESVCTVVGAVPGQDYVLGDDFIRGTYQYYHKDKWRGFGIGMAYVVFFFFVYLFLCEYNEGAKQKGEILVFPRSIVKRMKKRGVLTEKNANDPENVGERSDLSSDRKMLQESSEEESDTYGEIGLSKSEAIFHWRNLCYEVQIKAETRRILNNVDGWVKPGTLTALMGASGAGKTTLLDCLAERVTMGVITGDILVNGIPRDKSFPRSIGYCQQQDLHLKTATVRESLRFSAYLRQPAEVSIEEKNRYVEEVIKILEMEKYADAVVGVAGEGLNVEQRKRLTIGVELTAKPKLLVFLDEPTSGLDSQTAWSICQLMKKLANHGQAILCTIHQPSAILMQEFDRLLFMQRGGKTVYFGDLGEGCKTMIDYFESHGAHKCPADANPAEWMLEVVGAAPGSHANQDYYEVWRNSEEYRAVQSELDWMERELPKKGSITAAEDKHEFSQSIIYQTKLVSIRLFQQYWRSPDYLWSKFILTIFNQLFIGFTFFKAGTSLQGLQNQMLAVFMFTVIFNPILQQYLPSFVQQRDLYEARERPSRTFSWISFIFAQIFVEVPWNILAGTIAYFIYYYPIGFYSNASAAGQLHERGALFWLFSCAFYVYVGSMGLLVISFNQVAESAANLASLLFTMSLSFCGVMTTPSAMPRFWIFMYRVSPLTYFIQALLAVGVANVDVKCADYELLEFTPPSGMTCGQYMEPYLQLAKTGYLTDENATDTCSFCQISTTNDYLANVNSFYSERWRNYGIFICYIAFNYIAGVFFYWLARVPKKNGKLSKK
- TEST_DETAILS: ATPase activity (Pi release) in Pdr5p-enriched plasma membranes, Pdr5p-null membranes subtracted

- COMPOUND: "CCCC[Te]CCCCCNC(=O)c1ccccc1 [compound 5]"
  OUTPUT_UNIT: "nM"
  IC50: 1480
- COMPOUND: "CCCC[Te]CCCNC(=O)OC(C)(C)C [compound 1]"
  OUTPUT_UNIT: "nM"
  IC50: 1140
- COMPOUND: "CCCC[Te]CCCCNC(=O)c1ccccc1 [compound 3]"
  OUTPUT_UNIT: "nM"
  IC50: 1740
- COMPOUND: "CCCC[Te]CCCNC(=O)c1ccccc1 [compound 2]"
  OUTPUT_UNIT: "nM"
  IC50: 1450
